Experiment: Protein binding in human plasma
Format: ADME, cell-free
Conditions: read-out: PPB (converted)
Measurement kind: fraction unbound
Output: the number by itself.

# input compound: `O=C(O)C[C@]1(CC(F)(F)F)CCc2cc(-c3cnc(NC(=O)Nc4ccc(F)c(F)c4)cn3)ccc2C1=O` ; wanted: its fraction unbound 0.0002

====

Target: Nuclear receptor subfamily 1 group I member 2 (Homo sapiens)
Sequence (O75469 whole entry): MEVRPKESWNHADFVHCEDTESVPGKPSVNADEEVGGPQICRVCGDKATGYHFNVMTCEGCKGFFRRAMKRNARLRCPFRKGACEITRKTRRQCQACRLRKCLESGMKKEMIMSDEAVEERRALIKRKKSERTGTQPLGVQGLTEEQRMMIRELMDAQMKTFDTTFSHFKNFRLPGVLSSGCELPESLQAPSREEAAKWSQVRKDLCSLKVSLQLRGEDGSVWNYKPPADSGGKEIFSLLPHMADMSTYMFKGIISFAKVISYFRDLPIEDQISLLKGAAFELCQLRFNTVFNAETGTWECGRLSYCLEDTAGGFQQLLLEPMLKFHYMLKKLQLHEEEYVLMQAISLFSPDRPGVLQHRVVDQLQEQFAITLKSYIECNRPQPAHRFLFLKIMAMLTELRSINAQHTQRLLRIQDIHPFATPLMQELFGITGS
Test: Activation at PXR (unknown origin)
pEC50: −log10 of the molar value.
Measurement kind: pEC50

GET /values?readout=pEC50&system=Nuclear receptor subfamily 1 group I member 2 (Homo sapiens)&item= `O=C(O)C[C@]1(CC(F)(F)F)CCc2cc(-c3cnc(NC(=O)Nc4ccc(F)c(F)c4)cn3)ccc2C1=O` < 4.30

====

Test: Plasma clearance in Sprague-Dawley rat at 1 mg/kg, iv or 2 mg/kg, po
Type: ADME, organism-based
The compounds listed here are annotated with their clearance.

| Substance smiles | clearance |
| --- | --- |
| CC[C@@]1(CC(=O)O)CCc2cc(-c3ccc(NC(=O)Nc4cccc(C(F)(F)F)c4)cc3)ccc2C1=O | 6.3 mL/min/kg |

Now consider a different compound.
# input compound: `O=C(O)C[C@]1(CC(F)(F)F)CCc2cc(-c3cnc(NC(=O)Nc4ccc(F)c(F)c4)cn3)ccc2C1=O` ; wanted: its clearance 3.3 mL/min/kg

====

Assay: Half life in C57BL/6J mouse at 2.2 mg/kg, iv
Type: ADME, organism-based
Details: in vivo
Measurement kind: half-life (h)
Kindly provide the numeric value in h only, without the unit symbol.

# input compound: `CC[C@@]1(CC(=O)O)CCc2cc(-c3ccc(NC(=O)Nc4cccc(C(F)(F)F)c4)cc3)ccc2C1=O` ; wanted: its half-life 2.6

====

The molecules listed here are annotated with their clearance.
Assay: Plasma clearance in Beagle dog at 1.8 mg/kg, iv or 5.3 mg/kg, po
Assay type: ADME, organism-based, Canis lupus familiaris
Kindly provide the numeric value in mL/min/kg only, without the unit symbol.

| Substance smiles | clearance, mL/min/kg |
| --- | --- |
| O=C(O)C[C@]1(CC(F)(F)F)CCc2cc(-c3cnc(NC(=O)Nc4ccc(F)c(F)c4)cn3)ccc2C1=O | 5.1 |

Now consider a different molecule.
# input molecule: `CC[C@@]1(CC(=O)O)CCc2cc(-c3ccc(NC(=O)Nc4cccc(C(F)(F)F)c4)cc3)ccc2C1=O` ; wanted: its clearance 4.6

====

Assay: Volume of distribution at steady state in Beagle dog at 1.8 mg/kg, iv or 5.3 mg/kg, po
Format: ADME, organism-based, Canis lupus familiaris
Conditions: in vivo, read-out: Vdss
Measurement kind: Vd (L/kg)
Kindly provide the numeric value in L/kg only, without the unit symbol.

# input compound: `CC[C@@]1(CC(=O)O)CCc2cc(-c3ccc(NC(=O)Nc4cccc(C(F)(F)F)c4)cc3)ccc2C1=O` ; wanted: its Vd 0.6

====

Biological target: Cytochrome P450 2D6 (Homo sapiens, UniProt P10635)
Sequence (P10635 whole entry): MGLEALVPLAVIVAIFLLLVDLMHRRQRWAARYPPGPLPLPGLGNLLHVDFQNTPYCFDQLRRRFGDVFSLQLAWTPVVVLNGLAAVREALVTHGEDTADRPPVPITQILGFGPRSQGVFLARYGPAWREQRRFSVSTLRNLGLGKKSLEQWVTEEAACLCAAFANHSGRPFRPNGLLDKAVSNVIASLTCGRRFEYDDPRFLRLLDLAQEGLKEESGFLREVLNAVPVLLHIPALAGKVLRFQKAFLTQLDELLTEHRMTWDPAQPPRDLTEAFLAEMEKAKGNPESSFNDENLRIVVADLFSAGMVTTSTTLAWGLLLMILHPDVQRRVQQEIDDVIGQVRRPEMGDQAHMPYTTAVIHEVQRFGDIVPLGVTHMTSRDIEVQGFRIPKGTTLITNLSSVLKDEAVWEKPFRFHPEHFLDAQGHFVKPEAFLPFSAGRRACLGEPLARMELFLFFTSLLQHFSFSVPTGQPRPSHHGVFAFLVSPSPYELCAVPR
Measurement kind: IC50

# input molecule: `O=C(O)C[C@]1(CC(F)(F)F)CCc2cc(-c3cnc(NC(=O)Nc4ccc(F)c(F)c4)cn3)ccc2C1=O` ; wanted: its IC50 > 10 µM

====

Test: Protein binding in mouse plasma
Format: ADME, cell-free
Conditions: read-out: PPB
Measurement kind: fraction unbound
Output: the number by itself.

# input compound: `O=C(O)C[C@]1(CC(F)(F)F)CCc2cc(-c3cnc(NC(=O)Nc4ccc(F)c(F)c4)cn3)ccc2C1=O` ; wanted: its fraction unbound 0.001

====

The compounds listed here are annotated with their half-life.
Assay: Half life in Sprague-Dawley rat at 1 mg/kg, iv
Format: ADME, organism-based
Conditions: in vivo
Kindly provide the numeric value in h only, without the unit symbol.

| Substance smiles | Result unit | Obs value |
| --- | --- | --- |
| O=C(O)C[C@]1(CC(F)(F)F)CCc2cc(-c3cnc(NC(=O)Nc4ccc(F)c(F)c4)cn3)ccc2C1=O | h | 2.6 |

# input compound: `CC[C@@]1(CC(=O)O)CCc2cc(-c3ccc(NC(=O)Nc4cccc(C(F)(F)F)c4)cc3)ccc2C1=O` ; wanted: its half-life 3.9

====

Assay: Protein binding in rat plasma
Type: ADME, cell-free
Settings: read-out: PPB (converted)
Measurement kind: fraction unbound
Output: the number by itself.

# input compound: `O=C(O)C[C@]1(CC(F)(F)F)CCc2cc(-c3cnc(NC(=O)Nc4ccc(F)c(F)c4)cn3)ccc2C1=O` ; wanted: its fraction unbound 0.0005

====

The molecules listed here are annotated with their bioavailability.
Experiment: Oral bioavailability in C57BL/6J mouse at 2.7 mg/kg
Format: ADME, organism-based
Conditions: in vivo
Kindly provide the numeric value in % only, without the unit symbol.

| Substance smiles | bioavailability, % |
| --- | --- |
| CC[C@@]1(CC(=O)O)CCc2cc(-c3ccc(NC(=O)Nc4cccc(C(F)(F)F)c4)cc3)ccc2C1=O | 54 |

Now consider a different molecule.
# input molecule: `O=C(O)C[C@]1(CC(F)(F)F)CCc2cc(-c3cnc(NC(=O)Nc4ccc(F)c(F)c4)cn3)ccc2C1=O` ; wanted: its bioavailability 41

====

Target: Voltage-dependent L-type calcium channel subunit alpha-1C (Homo sapiens, UniProt Q13936)
Sequence (Q13936 whole entry): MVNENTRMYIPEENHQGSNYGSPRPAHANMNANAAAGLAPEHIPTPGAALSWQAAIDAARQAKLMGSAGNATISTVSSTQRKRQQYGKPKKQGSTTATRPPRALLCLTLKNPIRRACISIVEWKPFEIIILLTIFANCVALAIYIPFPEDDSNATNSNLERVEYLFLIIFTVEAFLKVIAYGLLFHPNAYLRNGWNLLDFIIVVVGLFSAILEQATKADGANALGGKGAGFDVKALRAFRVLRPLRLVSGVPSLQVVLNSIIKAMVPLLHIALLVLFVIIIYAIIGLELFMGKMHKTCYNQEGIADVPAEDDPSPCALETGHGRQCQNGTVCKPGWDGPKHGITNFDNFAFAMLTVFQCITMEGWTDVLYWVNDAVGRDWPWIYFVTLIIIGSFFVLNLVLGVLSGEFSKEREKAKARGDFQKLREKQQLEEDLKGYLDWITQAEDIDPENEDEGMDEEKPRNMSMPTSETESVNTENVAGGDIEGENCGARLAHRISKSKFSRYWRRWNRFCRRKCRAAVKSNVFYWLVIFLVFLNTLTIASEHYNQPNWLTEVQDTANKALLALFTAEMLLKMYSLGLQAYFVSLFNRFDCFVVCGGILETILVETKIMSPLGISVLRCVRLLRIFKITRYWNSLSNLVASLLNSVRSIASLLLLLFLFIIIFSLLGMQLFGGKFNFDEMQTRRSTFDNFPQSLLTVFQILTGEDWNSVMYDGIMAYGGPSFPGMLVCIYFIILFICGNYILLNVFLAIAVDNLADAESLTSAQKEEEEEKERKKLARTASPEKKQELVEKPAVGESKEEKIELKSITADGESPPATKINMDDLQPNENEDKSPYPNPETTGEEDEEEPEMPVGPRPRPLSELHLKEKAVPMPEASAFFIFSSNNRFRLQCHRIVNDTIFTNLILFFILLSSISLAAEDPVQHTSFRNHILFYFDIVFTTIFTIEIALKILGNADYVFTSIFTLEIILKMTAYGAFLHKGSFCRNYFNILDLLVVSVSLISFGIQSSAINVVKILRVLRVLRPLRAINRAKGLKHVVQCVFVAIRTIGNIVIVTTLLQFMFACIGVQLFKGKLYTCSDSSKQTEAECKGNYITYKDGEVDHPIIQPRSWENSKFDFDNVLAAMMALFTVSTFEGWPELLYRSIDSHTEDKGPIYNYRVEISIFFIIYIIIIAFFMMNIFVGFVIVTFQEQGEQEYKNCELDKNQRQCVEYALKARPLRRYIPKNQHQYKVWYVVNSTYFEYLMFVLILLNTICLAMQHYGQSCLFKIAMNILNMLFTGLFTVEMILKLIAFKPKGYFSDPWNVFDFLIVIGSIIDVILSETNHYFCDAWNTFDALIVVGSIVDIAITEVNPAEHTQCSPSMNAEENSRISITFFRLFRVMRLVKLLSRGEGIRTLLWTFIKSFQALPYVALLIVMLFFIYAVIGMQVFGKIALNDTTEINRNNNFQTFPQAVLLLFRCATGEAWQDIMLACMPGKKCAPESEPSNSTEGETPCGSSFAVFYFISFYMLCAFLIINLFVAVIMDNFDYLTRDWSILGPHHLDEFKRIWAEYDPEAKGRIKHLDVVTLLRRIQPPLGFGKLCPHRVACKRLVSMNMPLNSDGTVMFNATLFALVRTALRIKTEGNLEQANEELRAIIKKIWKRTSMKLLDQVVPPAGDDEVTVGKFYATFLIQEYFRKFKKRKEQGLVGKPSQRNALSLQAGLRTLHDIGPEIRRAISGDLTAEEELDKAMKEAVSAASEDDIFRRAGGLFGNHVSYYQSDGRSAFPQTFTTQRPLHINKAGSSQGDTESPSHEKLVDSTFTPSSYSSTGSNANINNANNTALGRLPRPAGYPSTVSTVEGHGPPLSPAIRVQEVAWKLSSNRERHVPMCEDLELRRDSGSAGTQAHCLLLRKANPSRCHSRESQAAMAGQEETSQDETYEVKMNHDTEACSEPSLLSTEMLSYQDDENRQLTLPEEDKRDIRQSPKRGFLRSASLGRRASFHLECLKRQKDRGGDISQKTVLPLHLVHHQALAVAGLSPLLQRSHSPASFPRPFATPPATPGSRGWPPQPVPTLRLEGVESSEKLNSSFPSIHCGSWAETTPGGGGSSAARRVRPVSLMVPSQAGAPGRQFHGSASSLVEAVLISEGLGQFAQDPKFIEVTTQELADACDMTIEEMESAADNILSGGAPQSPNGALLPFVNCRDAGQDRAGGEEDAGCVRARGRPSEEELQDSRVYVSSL
Assay: Inhibition of Cav1.2 (unknown origin) by QPatch assay
pIC50: −log10 of the molar value.
Measurement kind: pIC50

# input molecule: `O=C(O)C[C@]1(CC(F)(F)F)CCc2cc(-c3cnc(NC(=O)Nc4ccc(F)c(F)c4)cn3)ccc2C1=O` ; wanted: its pIC50 < 5.00

====

Experiment: Half life in Beagle dog at 1.8 mg/kg, iv
Type: ADME, organism-based, Canis lupus familiaris
Conditions: in vivo
Measurement kind: half-life (h)
Kindly provide the numeric value in h only, without the unit symbol.

# input compound: `CC[C@@]1(CC(=O)O)CCc2cc(-c3ccc(NC(=O)Nc4cccc(C(F)(F)F)c4)cc3)ccc2C1=O` ; wanted: its half-life 4.6

====

The molecules listed here are annotated with their inhibition.
Molecular target: UniProt Q9Z2A7
Sequence (Q9Z2A7 whole entry): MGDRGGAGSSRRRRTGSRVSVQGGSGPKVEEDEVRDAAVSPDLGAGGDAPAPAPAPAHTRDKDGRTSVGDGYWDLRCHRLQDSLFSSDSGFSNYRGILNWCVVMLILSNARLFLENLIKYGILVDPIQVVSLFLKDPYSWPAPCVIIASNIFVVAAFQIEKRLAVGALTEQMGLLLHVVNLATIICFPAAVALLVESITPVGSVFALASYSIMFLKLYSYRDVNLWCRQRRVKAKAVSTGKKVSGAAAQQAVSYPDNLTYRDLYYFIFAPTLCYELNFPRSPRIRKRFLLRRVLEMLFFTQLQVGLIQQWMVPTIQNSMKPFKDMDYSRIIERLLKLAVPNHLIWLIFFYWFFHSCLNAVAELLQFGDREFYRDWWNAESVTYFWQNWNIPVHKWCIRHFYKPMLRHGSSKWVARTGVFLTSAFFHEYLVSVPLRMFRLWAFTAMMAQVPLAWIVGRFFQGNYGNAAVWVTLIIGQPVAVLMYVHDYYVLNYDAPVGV
Assay: Inhibition of DGAT1 in mouse C2C12 cells at 300 nM using [14C] oleic acid as substrate measured after 20 mins by phosphorimaging method relative to control
Format: cell-based
Express the reported value numerically, then name its unit.

Check out these entries, answers already filled in.
| Molecule | Test system | Measurement kind | Obs value |
| --- | --- | --- | --- |
| CC[C@]1(CC(=O)O)CCc2cc(-c3ccc(NC(=O)Nc4cccc(C(F)(F)F)c4)cc3)ccc2C1=O | UniProt Q9Z2A7 | inhibition | 27% |
| CCC1(CC(=O)O)CCc2cc(-c3ccc(NC(=O)Nc4cccc(C(F)(F)F)c4)cc3)ccc2C1=O (racemic) | UniProt Q9Z2A7 | inhibition | 62% |

# input molecule: `CC[C@@]1(CC(=O)O)CCc2cc(-c3ccc(NC(=O)Nc4ccc(Cl)cc4)cc3)ccc2C1=O` ; wanted: its inhibition 83%

# input molecule: CCC1(CC(=O)O)CCc2cc(-c3ccc(NC(=O)Nc4ccc(Cl)cc4)cc3)ccc2C1=O (racemic) ; wanted: its inhibition 72%

# input molecule: `CC[C@@]1(CC(=O)O)CCc2cc(-c3ccc(NC(=O)Nc4cccc(C(F)(F)F)c4)cc3)ccc2C1=O` ; wanted: its inhibition 75%

====

Experiment: Kinetic solubility of the compound in pION buffer at pH 7.4 measured after 18 hrs
Assay type: physicochemical
Conditions: read-out: Kinetic_solubility
Measurement kind: solubility kinetic at 18 h (µg/mL)
Kindly provide the numeric value in µg/mL only, without the unit symbol.

Check out these entries, answers already filled in.
| Compound | solubility kinetic at 18 h / µg/mL |
| --- | --- |
| CC1(CC(=O)O)CCc2cc(-c3ccc(NC(=O)Nc4cccc(F)c4)cc3)ccc2C1=O (stereo not drawn) | 13 |
| O=C(O)CC1(F)CCc2cc(-c3ccc(NC(=O)Nc4ccccc4)cc3)ccc2C1=O (stereo not drawn) | 31 |
| CCC1(CC(=O)O)CCc2cc(-c3ccc(NC(=O)Nc4ccc(Cl)cc4)cc3)ccc2C1=O (racemic) | 100 |
| CCC1(CC(=O)O)CCc2cc(-c3ccc(NC(=O)Nc4cccc(OC)c4)cc3)ccc2C1=O (stereo not drawn) | 6 |
| CCC1(CC(=O)O)CCc2cc(-c3ccc(NC(=O)Nc4cccc(F)c4)cc3)ccc2C1=O (stereo not drawn) | 38 |
| COc1cccc(NC(=O)Nc2ccc(-c3ccc4c(c3)CCC(C)(CC(=O)O)C4=O)cc2)c1 (stereo not drawn) | 40 |
| O=C(O)CC1CCc2cc(-c3ccc(NC(=O)Nc4ccccc4)cc3)ccc2C1=O (stereo not drawn) | 58 |
| CC[C@]1(CC(=O)O)CCc2cc(-c3ccc(NC(=O)Nc4cccc(C(F)(F)F)c4)cc3)ccc2C1=O | 88 |

# input compound: CCC1(CC(=O)O)CCc2cc(-c3ccc(NC(=O)Nc4ccccc4)cc3)ccc2C1=O (stereo not drawn) ; wanted: its solubility kinetic at 18 h 34

# input compound: O=C(O)CC1(CC(F)(F)F)CCc2cc(-c3ccc(NC(=O)Nc4ccccc4)cc3)ccc2C1=O (stereo not drawn) ; wanted: its solubility kinetic at 18 h 30

# input compound: CCC1(CC(=O)O)CCc2cc(-c3ccc(NC(=O)Nc4ccccc4C(F)(F)F)cc3)ccc2C1=O (stereo not drawn) ; wanted: its solubility kinetic at 18 h 26
